- Target or test system: T1, biotinylated hBLyS-ECD (human, UniProt Q9Y275 134-285, biotinylated with Biotin-X-X-NHS (molar ratio 7:1); sites not stated)
- T1 construct: also called biotinylated immunogen; biotinylated hBLvS-ECD
- T1 sequence (Q9Y275 134-285): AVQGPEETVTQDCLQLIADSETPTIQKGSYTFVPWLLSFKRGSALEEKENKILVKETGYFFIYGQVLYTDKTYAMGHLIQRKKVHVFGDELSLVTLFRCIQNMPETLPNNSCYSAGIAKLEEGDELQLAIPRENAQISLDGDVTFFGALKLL
- Measurement notes: ELISA on captured biotinylated hBLyS-ECD; antibody 13.3 nM
Reported endpoint: OD450 nm (OD450 nm)
Use OD450 nm as the unit, but write only the number.

What the record says about c67A2E1D10 (antibody, V domains shown) VH: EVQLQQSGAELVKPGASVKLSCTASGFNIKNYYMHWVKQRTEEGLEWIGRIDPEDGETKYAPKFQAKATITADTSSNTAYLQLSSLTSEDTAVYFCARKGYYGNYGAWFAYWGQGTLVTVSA VL: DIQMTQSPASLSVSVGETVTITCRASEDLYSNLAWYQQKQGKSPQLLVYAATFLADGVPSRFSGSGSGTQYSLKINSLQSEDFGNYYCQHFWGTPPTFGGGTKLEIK : OD450 nm is 3.24
